System: RAW246.7: murine leukemic monocyte macrophages
Run Description: Growth inhibition experiments (GI50), RAW246.7
Type: cell-based
Condition Set: group A derivatives, small panel of cancer cell lines
Reported values of GI50 for individual entries
Hey, just the number and the unit after it is fine.

Readout GI50 for CCC1C/C=C(\C)CCC(=O)NC(C)C(=O)N(C)C(C(C)C)C(=O)NC(c2ccc(O)c(Cl)c2)CC(=O)O1 (centres unmarked) [CA4] , test system RAW246.7: murine leukemic monocyte macrophages, was 29.8 nM

Readout GI50 for CCC1C/C=C(\C)CC(C)C(=O)NC(C)C(=O)N(C)C(C(C)C)C(=O)NC(c2ccc(O)c(Cl)c2)CC(=O)O1 (single isomer, unassigned) [CA6-Fr1] , test system RAW246.7: murine leukemic monocyte macrophages, was 41.1 nM

Readout GI50 for C/C1=C\CCOC(=O)CC(c2ccc(O)c(Br)c2)NC(=O)C(Cc2c[nH]c3ccccc23)N(C)C(=O)C(C)NC(=O)CC1 (centres unmarked) , test system RAW246.7: murine leukemic monocyte macrophages, was 6.2 nM

Readout GI50 for CCC1C/C=C(\C)CCC(=O)NC(C)C(=O)N(C)C(C(C)C)C(=O)NC(c2ccc(O)c(Cl)c2)CC(=O)O1 (centres unmarked) [CA5] , test system RAW246.7: murine leukemic monocyte macrophages, was 56.2 nM

Readout GI50 for CCC1C/C=C(\C)CC(C)C(=O)NC(C)C(=O)N(C)C(C(C)C)C(=O)NC(c2ccc(O)c(Cl)c2)CC(=O)O1 (single isomer, unassigned) [CA6-Fr2] , test system RAW246.7: murine leukemic monocyte macrophages, was 105 nM

---

Test system: KB-3.1: human cervical carcinoma
Run Description: Growth inhibition experiments (GI50), KB-3.1
Assay type: cell-based
Condition Set: Table 1; KB-3.1
Reported values of GI50 values KB-3.1 for individual entries
Answer format: numeric, µM implied, no suffix.

Readout GI50 values KB-3.1 for CO[C@@H]1C(=O)O[C@H](C)[C@@H](C)C=C(C)C[C@H](C)C(=O)N[C@@H](C)C(=O)N(C)[C@H](Cc2c(Cl)[nH]c3ccccc23)C(=O)NC1c1ccc(O)cc1 (stereo partly drawn) [Chondramide B, reference compound] , test system KB-3.1: human cervical carcinoma, was 0.0407

Readout GI50 values KB-3.1 for COC1C(=O)OC(C)C(C)C=C(C)CC(C)C(=O)NC(C)C(=O)N(C)C(Cc2c(Cl)[nH]c3ccccc23)C(=O)NC1c1ccc(OP(=O)(O)O)cc1 (stereo not drawn) [Chondramide A6] , test system KB-3.1: human cervical carcinoma, was 0.0493

Readout GI50 values KB-3.1 for CC1=CC(C)C(C)OC(=O)C(O)C(c2ccc(O)c(Cl)c2)NC(=O)C(Cc2c(Cl)[nH]c3ccccc23)N(C)C(=O)C(C)NC(=O)C(C)C1 (stereo not drawn) [Chondramide E4] , test system KB-3.1: human cervical carcinoma, was 0.6272

---

System: KB-3.1: human cervical carcinoma
Run Description: Growth inhibition experiments (GI50), KB-3.1
Assay type: cell-based
Condition Set: Table 1; KB-3.1
Reported values of GI50 values KB-3.1 for individual entries
Answer format: numeric, nM implied, no suffix.

Known GI50 values KB-3.1 results, listed for orientation:
[
  {
    "Molecule": "C/C1=C\\[C@@H](C)[C@@H](C)OC(=O)C[C@H](c2ccc(O)cc2)NC(=O)[C@@H](Cc2c[nH]c3ccccc23)N(C)C(=O)[C@H](C)NC(=O)[C@@H](C)C1 [Chondramide C, reference compound]",
    "Measurement Target": "KB-3.1: human cervical carcinoma",
    "GI50 values KB-3.1 (nM)": 36.8
  },
  {
    "Molecule": "CCC1OC(=O)CC(c2ccc(O)c(Br)c2)NC(=O)C(Cc2c[nH]c3ccccc23)N(C)C(=O)C(C)NC(=O)C(C)CC(C)=CC1C (stereo not shown) [Propionyl-Bromo-Chondramide C3]",
    "Measurement Target": "KB-3.1: human cervical carcinoma",
    "GI50 values KB-3.1 (nM)": 38.0
  },
  {
    "Molecule": "CO[C@@H]1C(=O)O[C@H](C)[C@H](C)/C=C(\\C)C[C@H](C)C(=O)N[C@@H](C)C(=O)N(C)[C@H](Cc2c[nH]c3ccccc23)C(=O)N[C@H]1c1ccc(O)cc1 [Chondramide A, reference compound]",
    "Measurement Target": "KB-3.1: human cervical carcinoma",
    "GI50 values KB-3.1 (nM)": 50.5
  }
]

Now, please, on to the next molecule.
Readout GI50 values KB-3.1 for CCC1OC(=O)CC(c2ccc(O)cc2)NC(=O)C(Cc2c[nH]c3ccccc23)N(C)C(=O)C(C)NC(=O)C(C)CC(C)=CC1C (stereo not shown) [Propionyl-Chondramide C1] , test system KB-3.1: human cervical carcinoma, was 56.3
